- Type: physicochemical
attribute-measured: Solubility (mg/mL)

{"molecule": "C=CC(=O)Nc1cccc(Oc2nc(Nc3ccc(N4CCN(C)CC4)cc3)nc3ccoc23)c1 [Example 3]", "endpoint-result": 1.27}

I = C=CC(=O)Nc1cccc(Oc2nc(Nc3ccc(N4CCN(C)CC4)cc3)nc3ccoc23)c1 [Example 6]
II = C=CC(=O)Nc1cccc(Oc2nc(Nc3ccc(N4CCN(C)CC4)cc3)nc3ccoc23)c1 [Example 5]
Which of these two has the smaller recorded Solubility: I or II ? Give the label of your selection.
II
(II: 0.93 mg/mL, I: 9.59 mg/mL)

###

- experiment: Dynamic vapor sorption (DVS) hygroscopicity
- Format: physicochemical
- condition-description: 25° C., region with a relative humidity of 10% to 90%

{"molecule": "C=CC(=O)Nc1cccc(Oc2nc(Nc3ccc(N4CCN(C)CC4)cc3)nc3ccoc23)c1 [Example 5]", "water absorption in DVS": "about 1%"}
{"molecule": "C=CC(=O)Nc1cccc(Oc2nc(Nc3ccc(N4CCN(C)CC4)cc3)nc3ccoc23)c1 [Example 6]", "water absorption in DVS": "about 1%"}
{"molecule": "C=CC(=O)Nc1cccc(Oc2nc(Nc3ccc(N4CCN(C)CC4)cc3)nc3ccoc23)c1 [Example 3]", "water absorption in DVS": "about 1%"}
